Experiment: Plasma stability (37° C., pH 7.4), mouse
Format: in vitro ADME, CD-1 mouse
Settings: mouse plasma, test article 1 μM, 37° C., pH 7.4, 60 min
# binarize % Remaining of Initial (n = 1), 60 min: threshold 9% inclusive, high side 1 (yes), low side 0 (no)

Given CCCCC/C=C\C/C=C\CCCCCCCC(=O)OCCNC(=O)CCCCCCCCCCCCCCC [Compound I-6] , state whether its % Remaining of Initial (n = 1), 60 min is at least 9%.
1 (yes)

Given CCCCCCCCCCCCCCCC(=O)NCCOC(=O)CCC(=O)OCC(COC(=O)CCC)OC(=O)CCC (stereo not shown) [Compound I-11] , state whether its % Remaining of Initial (n = 1), 60 min is at least 9%.
0 (no)

Given CCCCCCCCCCCCCCCC(=O)NCCOC(=O)CCC(=O)OC[C@H]1O[C@@](CO)(O[C@H]2O[C@H](CO)[C@@H](O)[C@H](O)[C@H]2O)[C@@H](O)[C@@H]1O [Compound I-7] , state whether its % Remaining of Initial (n = 1), 60 min is at least 9%.
0 (no)

Given CCCCCCCCCCCCCCCC(=O)NCCOC(=O)CCC(=O)OCC(O)CO (stereo not shown) [Compound I-9] , state whether its % Remaining of Initial (n = 1), 60 min is at least 9%.
0 (no)

Given CCCCCCCCCCCCCCCC(=O)NCCOC(=O)CCC [Compound I-2] , state whether its % Remaining of Initial (n = 1), 60 min is at least 9%.
1 (yes)

Given CC/C=C\C/C=C\C/C=C\C/C=C\C/C=C\CCCC(=O)OCCNC(=O)CCCCCCCCCCCCCCC [Compound I-5] , state whether its % Remaining of Initial (n = 1), 60 min is at least 9%.
1 (yes)

---

Test: Intestinal S9 fraction stability, dog
Settings: male, Beagle, dog, s9, Half-life, Control Compound; Dog intestinal S9 fraction
measured-quantity: half-life

I am curious: what half-life value has been reported for C[C@]12CC[C@H]3[C@@H](CCC4=CC(=O)CC[C@@]43C)[C@@H]1CC[C@@H]2O [Testosterone, testosterone, reference compound] ?
> 1 h

---

Assay: Simulated intestinal fluid (SIF) stability in the presence of various enzymes
Assay type: in vitro ADME
Details: SIF + Carboxypeptidase B, 120 min, 1 μM
measured-quantity: % Remaining of Initial (n = 1)
Output should be the measured figure followed by the unit it is expressed in.

I am curious: what % Remaining of Initial (n = 1) value has been reported for CCCCCCCCCCCCCCCC(=O)NCCOC(=O)CCC(=O)OC[C@H]1O[C@@](CO)(O[C@H]2O[C@H](CO)[C@@H](O)[C@H](O)[C@H]2O)[C@@H](O)[C@@H]1O ?
2.2%

I am curious: what % Remaining of Initial (n = 1) value has been reported for CCCCCCCCCCCCCCCC(=O)NCCOC(=O)CCC(=O)OCC(COC(=O)CCC)OC(=O)CCC (stereo not shown) ?
9.6%

I am curious: what % Remaining of Initial (n = 1) value has been reported for CC/C=C\C/C=C\C/C=C\C/C=C\C/C=C\CCCC(=O)OCCNC(=O)CCCCCCCCCCCCCCC ?
14%

I am curious: what % Remaining of Initial (n = 1) value has been reported for CCCCCCCCCCCCCCCC(=O)NCCOC(=O)CCC(=O)OCC(O)CO (stereo not shown) ?
4.7%

---

Experiment: Pharmacokinetics of PEA after intravenous administration in male Sprague-Dawley rats
Format: in vivo, Sprague-Dawley rat
Conditions: male, Sprague-Dawley, rat, in vivo, iv, 1 mg/kg, Plasma concentration of PEA, Mean
measured-quantity: concentration at 1 hr (ng/mL)
Record the value in ng/mL, omitting the unit from your answer.

I am curious: what concentration at 1 hr value has been reported for CCCCCCCCCCCCCCCC(=O)NCCO [PEA, palmitoylethanolamide] ?
11.2

---

Test: Plasma stability (37° C., pH 7.4), rat
Format: in vitro ADME, Sprague-Dawley rat
Conditions: rat plasma, test article 1 μM, 37° C., pH 7.4, 30 min
# binarize % Remaining of Initial (n = 1), 30 min: threshold 90% inclusive, high side fulfilled, low side not fulfilled

Given CCCCCCCCCCCCCCCC(=O)NCCOC(=O)CCC(=O)OCC(O)CO (stereo not shown) , state whether its % Remaining of Initial (n = 1), 30 min is at least 90%.
not fulfilled

Given CCCCC/C=C\C/C=C\CCCCCCCC(=O)OCCNC(=O)CCCCCCCCCCCCCCC , state whether its % Remaining of Initial (n = 1), 30 min is at least 90%.
fulfilled

Given CCCCCCCCCCCCCCCC(=O)NCCOC(=O)CCC(=O)OC[C@H]1O[C@@](CO)(O[C@H]2O[C@H](CO)[C@@H](O)[C@H](O)[C@H]2O)[C@@H](O)[C@@H]1O , state whether its % Remaining of Initial (n = 1), 30 min is at least 90%.
not fulfilled

Given CCCCCCCCCCCCCCCC(=O)NCCOC(=O)CCC(=O)OCC(COC(=O)CCCCCCC)OC(=O)CCCCCCC (stereo not shown) [Compound I-3, PEA-Succinate-Glycerol-Di-Caprylic] , state whether its % Remaining of Initial (n = 1), 30 min is at least 90%.
not fulfilled

Given CCCCCCCCCCCCCCCC(=O)NCCOC(=O)CCC(=O)OCC(COC(=O)CCC)OC(=O)CCC (stereo not shown) , state whether its % Remaining of Initial (n = 1), 30 min is at least 90%.
not fulfilled

Given CCCCCCCCCCCCCCCC(=O)NCCOC(=O)CCC , state whether its % Remaining of Initial (n = 1), 30 min is at least 90%.
not fulfilled

---

Assay: Plasma stability (37° C., pH 7.4), rat
Format: in vitro ADME, Sprague-Dawley rat
Conditions: male, Sprague-Dawley, rat, plasma, pH 7.4, rat plasma, test article 1 μM, 37° C., pH 7.4; read-out: Half-life
Record form. Attribute: half-life at 1 μM. Fill in for each entry.
Record the value in min, omitting the unit from your answer.

I am curious: what half-life at 1 μM value has been reported for CCCCCCCCCCCCCCCC(=O)NCCOC(=O)CCC(=O)OCC(O)CO (stereo not shown) ?
2.8

I am curious: what half-life at 1 μM value has been reported for CCCCCCCCCCCCCCCC(=O)NCCOC(=O)CCC ?
49

I am curious: what half-life at 1 μM value has been reported for CCCCCCCCCCCCCCCC(=O)NCCOC(=O)CCC(=O)OCC(COC(=O)CCC)OC(=O)CCC (stereo not shown) ?
5.6

I am curious: what half-life at 1 μM value has been reported for CCCCC/C=C\C/C=C\CCCCCCCC(=O)OCCNC(=O)CCCCCCCCCCCCCCC ?
110

---

Test: Intestinal S9 fraction stability, rat
Conditions: male, Sprague-Dawley, rat, s9, Half-life, control compound, rat intestinal S9 fraction
measured-quantity: half-life

I am curious: what half-life value has been reported for C[C@]12CC[C@H]3[C@@H](CCC4=CC(=O)CC[C@@]43C)[C@@H]1CC[C@@H]2O [Testosterone, testosterone, reference compound] ?
> 60 min

---

Test: in vitro
Details: male, CD-1, mouse, s9, 20 min, 1 μM
measured-quantity: % Remaining of Initial (n = 1), 20 min (%)
Record the value in %, omitting the unit from your answer.

I am curious: what % Remaining of Initial (n = 1), 20 min value has been reported for CCCCCCCCCCCCCCCC(=O)NCCOC(=O)CCC(=O)OCC(O)CO (stereo not shown) [Compound I-9] ?
33

I am curious: what % Remaining of Initial (n = 1), 20 min value has been reported for CCCCCCCCCCCCCCCC(=O)NCCOC(=O)CCC(=O)OC[C@H]1O[C@@](CO)(O[C@H]2O[C@H](CO)[C@@H](O)[C@H](O)[C@H]2O)[C@@H](O)[C@@H]1O [Compound I-7] ?
35

I am curious: what % Remaining of Initial (n = 1), 20 min value has been reported for CCCCCCCCCCCCCCCC(=O)NCCOC(=O)CCC(=O)OCC(COC(=O)CCCCCCC)OC(=O)CCCCCCC (stereo not shown) [Compound I-3, PEA-Succinate-Glycerol-Di-Caprylic] ?
59

---

Experiment: Simulated intestinal fluid (SIF) stability in the presence of various enzymes
Format: in vitro ADME
Settings: SIF + Carboxypeptidase A, 30 min, 1 μM
Record form. Attribute: % Remaining of Initial (n = 1). Fill in for each entry.

I am curious: what % Remaining of Initial (n = 1) value has been reported for CCCCCCCCCCCCCCCC(=O)NCCOC(=O)CCC(=O)OC[C@H]1O[C@@](CO)(O[C@H]2O[C@H](CO)[C@@H](O)[C@H](O)[C@H]2O)[C@@H](O)[C@@H]1O ?
10%

I am curious: what % Remaining of Initial (n = 1) value has been reported for CCCCCCCCCCCCCCCC(=O)NCCOC(=O)CCC(=O)OCC(COC(=O)CCCCCCC)OC(=O)CCCCCCC (stereo not shown) [Compound I-3, PEA-Succinate-Glycerol-Di-Caprylic] ?
66%

I am curious: what % Remaining of Initial (n = 1) value has been reported for CC/C=C\C/C=C\C/C=C\C/C=C\C/C=C\CCCC(=O)OCCNC(=O)CCCCCCCCCCCCCCC ?
63%

I am curious: what % Remaining of Initial (n = 1) value has been reported for CCCCCCCCCCCCCCCC(=O)NCCOC(=O)CCC ?
70%
